Numbers sourced from patent US9901573B2.

System: C2C12 myotubes
Assay: Fatty acid oxidation (O2 consumption response to palmitate) in myotubes
Type: cell-based
Details: FIG. 4/5, 24 hours, leucine, valine, isoleucine 0.5 mM, B6 100 nM as pyridoxal phosphate, vs control
ENDPOINT: increase in fatty acid oxidation

# increase in fatty acid oxidation of CC(C)C[C@H](N)C(=O)O [Leucine, leucine] = 73%

###

System: C2C12 myotubes
Assay: Mitochondrial biogenesis (mitochondrial mass, NAO probe)
Format: cell-based
Conditions: FIG. 13
ENDPOINT: increase in mitochondrial biogenesis (mitochondrial biomass)

[[record]]
cpd_smiles = "CC[C@H](C)[C@H](N)C(=O)O"
reported_result = "no significant effect"

[[record]]
cpd_smiles = "CC(C)[C@H](N)C(=O)O"
reported_result = "no significant effect"

